Biological target: T1, Human full length B7-H3 (human, UniProt Q5ZPR3 29-534)
T1 construct: on 3T12 transfectants, NCI-H1650 and other cells; also called huB7-H3; hu B7-H3
T1 sequence: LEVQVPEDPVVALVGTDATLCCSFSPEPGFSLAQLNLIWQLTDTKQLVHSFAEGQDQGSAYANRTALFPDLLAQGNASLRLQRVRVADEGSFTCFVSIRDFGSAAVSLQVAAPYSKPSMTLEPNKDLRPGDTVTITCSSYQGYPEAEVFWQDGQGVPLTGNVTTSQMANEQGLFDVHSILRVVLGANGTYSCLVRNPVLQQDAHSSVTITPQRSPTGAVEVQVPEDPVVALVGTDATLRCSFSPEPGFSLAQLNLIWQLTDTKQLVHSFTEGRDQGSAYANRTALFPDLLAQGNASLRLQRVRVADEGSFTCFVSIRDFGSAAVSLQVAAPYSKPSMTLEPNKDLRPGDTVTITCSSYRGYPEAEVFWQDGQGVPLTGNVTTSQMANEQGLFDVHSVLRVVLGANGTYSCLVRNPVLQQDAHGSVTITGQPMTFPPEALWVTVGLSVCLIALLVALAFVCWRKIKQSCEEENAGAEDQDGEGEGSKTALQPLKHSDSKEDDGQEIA
Assay: FACS, 3T12 transfectants
binders and their reported pEC50
# log scale: pEC50 equals minus log10 of the concentration in mol/L

Binder | Experimental Endpoint | Result Number
huAb3v2.8 (antibody, V domains shown) VH: EVQLVQSGAEVKKPGSSVKVSCKASGYTFSSYWMHWVRQAPGQGLEWIGLIHPISGSTNYNEMFKNRATLTVDRSTSTAYMELSSLRSEDTAVYYCAGGGRLYFDYWGQGTTVTVSS VL: DIVMTQSPLSLPVTPGEPASISCRSSQSLVHSNRDTYLRWYLQKPGQSPQLLIYKVSNRFSGVPDRFSGSGSGTDFTLKISRVEAEDVGVYYCSQSTHVPYTFGGGTKVEIK | pEC50 | 8.40
huAb3v2.2 (antibody, V domains shown) VH: EVQLVQSGAEVKKPGSSVKVSCKASGYTFSSYWMHWVRQAPGQGLEWIGLIHPWSGSTNYNEMFKNRATLTVDRSTSTAYMELSSLRSEDTAVYYCAGGGRLYFDYWGQGTTVTVSS VL: DIVMTQSPLSLPVTPGEPASISCRSSQSLVHSNRDTYLRWYLQKPGQSPQLLIYKVSNRFSGVPDRFSGSGSGTDFTLKISRVEAEDVGVYYCSQSTHVPYTFGGGTKVEIK | pEC50 | 8.28

# next binder below
In: Requested read-out: pEC50. Entry: huAb3v2.3 (antibody, V domains shown) VH: EVQLVQSGAEVKKPGSSVKVSCKASGYTFSSYWMHWVRQAPGQGLEWIGLIHPWSGSTNYNEMFKNRATLTVDRSTSTAYMELSSLRSEDTAVYYCAGGGRLYFDYWGQGTTVTVSS VL: DIVMTQSPLSLPVTPGEPASISCRSSQSLVHSNQDTYLRWYLQKPGQSPQLLIYKVSNRFSGVPDRFSGSGSGTDFTLKISRVEAEDVGVYYCSQSTHVPYTFGGGTKVEIK
Out: 8.19
